Please provide measured IC50 for the entries that follow.
Test system: A2780
Assay Comment: Cytotoxicity against human A2780 cells after 48 hrs by MTT assay
Type: functional, cell-based
Assay Setup: A2780, 48 h
Give your result as the value with the unit written after it.

CC(=O)O[C@H]1C(=O)[C@@]2(C)[C@H]([C@H](OC(=O)c3ccccc3)[C@]3(O)C[C@H](OC(=O)[C@H](O)[C@@H](NC(=O)c4ccccc4)c4ccccc4)C(C)=C1C3(C)C)[C@]1(OC(C)=O)CO[C@@H]1C[C@@H]2O
0.62 nM

Consider now this further compound.
Recorded result, `C/C=C(\C)C(=O)N[C@@H](c1ccccc1)[C@@H](O)C(=O)O[C@H]1C[C@@]2(O)[C@@H](OC(=O)c3cccc(N=[N+]=[N-])c3)[C@@H]3[C@]4(OC(C)=O)CO[C@@H]4C[C@H](OC(=O)N(C)C)[C@@]3(C)C(=O)[C@H](O)C(=C1C)C2(C)C` , IC50: 26 nM

* * *

Assay Comment: Binding affinity to purified p-glycoprotein by fluorescence quenching assay
Measured Quantity: Kd

Sample records with Kd:
CC(=O)O[C@H]1C(=O)[C@@]2(C)[C@H]([C@H](OC(=O)c3ccccc3)[C@]3(O)C[C@H](OC(=O)[C@H](O)[C@@H](NC(=O)c4ccccc4)c4ccccc4)C(C)=C1C3(C)C)[C@]1(OC(C)=O)CO[C@@H]1C[C@@H]2O [PACLITAXEL]
0.035 µM
C/C=C(\C)C(=O)N[C@@H](c1ccccc1)[C@@H](O)C(=O)O[C@H]1C[C@@]2(O)[C@@H](OC(=O)c3cccc(N=[N+]=[N-])c3)[C@@H]3[C@]4(OC(C)=O)CO[C@@H]4C[C@H](OC(=O)N(C)C)[C@@]3(C)C(=O)[C@H](O)C(=C1C)C2(C)C
5.29 µM
C/C=C(\C)C(=O)N[C@@H](c1ccccc1)[C@@H](O)C(=O)O[C@H]1C[C@@]2(O)[C@@H](OC(=O)c3cccc(N=[N+]=[N-])c3)[C@@H]3[C@]4(OC(C)=O)CO[C@@H]4C[C@H](OC(=O)NC)[C@@]3(C)C(=O)[C@H](O)C(=C1C)C2(C)C
3.15 µM

Consider now this further molecule.
Recorded result, `C/C=C(\C)C(=O)N[C@@H](c1ccccc1)[C@@H](O)C(=O)O[C@H]1C[C@@]2(O)[C@@H](OC(=O)c3cccc(N=[N+]=[N-])c3)[C@@H]3[C@]4(OC(C)=O)CO[C@@H]4C[C@H](OC(=O)CC(F)(F)F)[C@@]3(C)C(=O)[C@H](O)C(=C1C)C2(C)C` , Kd: 4.31 µM

* * *

Assay Comment: Efflux ratio of permeability from basolateral to apical side to apical to basolateral side in human Caco2 cells at 10 uM by LC/MS/MS analysis
Type: ADME, cell-based
Assay Setup: Caco-2
Returns the class for an entry based on its efflux ratio at 10 µM. Class ranges: one (below 2), two (2 to below 6), three (6 or more)

Some solved cases for reference:
C/C=C(\C)C(=O)N[C@@H](c1ccccc1)[C@@H](O)C(=O)O[C@H]1C[C@@]2(O)[C@@H](OC(=O)c3cccc(N=[N+]=[N-])c3)[C@@H]3[C@]4(OC(C)=O)CO[C@@H]4C[C@H](OC(=O)CCl)[C@@]3(C)C(=O)[C@H](O)C(=C1C)C2(C)C
two
C/C=C(\C)C(=O)N[C@@H](c1ccccc1)[C@@H](O)C(=O)O[C@H]1C[C@@]2(O)[C@@H](OC(=O)c3cccc(N=[N+]=[N-])c3)[C@@H]3[C@]4(OC(C)=O)CO[C@@H]4C[C@H](OC(=O)CC(F)(F)F)[C@@]3(C)C(=O)[C@H](O)C(=C1C)C2(C)C
two

-- ask Which bin should I file `C/C=C(\C)C(=O)N[C@@H](c1ccccc1)[C@@H](O)C(=O)O[C@H]1C[C@@]2(O)[C@@H](OC(=O)c3cccc(N=[N+]=[N-])c3)[C@@H]3[C@]4(OC(C)=O)CO[C@@H]4C[C@H](OC(=O)OCC)[C@@]3(C)C(=O)[C@H](O)C(=C1C)C2(C)C` under?
-- reply one

-- ask Which bin should I file `C/C=C(\C)C(=O)N[C@@H](c1ccccc1)[C@@H](O)C(=O)O[C@H]1C[C@@]2(O)[C@@H](OC(=O)c3cccc(N=[N+]=[N-])c3)[C@@H]3[C@]4(OC(C)=O)CO[C@@H]4C[C@H](OC(=O)CC)[C@@]3(C)C(=O)[C@H](O)C(=C1C)C2(C)C` under?
-- reply two

-- ask Which bin should I file `C/C=C(\C)C(=O)N[C@@H](c1ccccc1)[C@@H](O)C(=O)O[C@H]1C[C@@]2(O)[C@@H](OC(=O)c3cccc(N=[N+]=[N-])c3)[C@@H]3[C@]4(OC(C)=O)CO[C@@H]4C[C@H](OC(=O)CNC(=O)OC(C)(C)C)[C@@]3(C)C(=O)[C@H](O)C(=C1C)C2(C)C` under?
-- reply three

-- ask Which bin should I file `CC(=O)O[C@H]1C(=O)[C@@]2(C)[C@H]([C@H](OC(=O)c3ccccc3)[C@]3(O)C[C@H](OC(=O)[C@H](O)[C@@H](NC(=O)c4ccccc4)c4ccccc4)C(C)=C1C3(C)C)[C@]1(OC(C)=O)CO[C@@H]1C[C@@H]2O` under?
-- reply three

-- ask Which bin should I file CC(C)NCC(O)COc1cccc2ccccc12 (stereo not given) under?
-- reply one

-- ask Which bin should I file `C/C=C(\C)C(=O)N[C@@H](c1ccccc1)[C@@H](O)C(=O)O[C@H]1C[C@@]2(O)[C@@H](OC(=O)c3cccc(N=[N+]=[N-])c3)[C@@H]3[C@]4(OC(C)=O)CO[C@@H]4C[C@H](OC(=O)NC)[C@@]3(C)C(=O)[C@H](O)C(=C1C)C2(C)C` under?
-- reply three

-- ask Which bin should I file `C/C=C(\C)C(=O)N[C@@H](c1ccccc1)[C@@H](O)C(=O)O[C@H]1C[C@@]2(O)[C@@H](OC(=O)c3cccc(N=[N+]=[N-])c3)[C@@H]3[C@]4(OC(C)=O)CO[C@@H]4C[C@H](OC(=O)C4CC4)[C@@]3(C)C(=O)[C@H](O)C(=C1C)C2(C)C` under?
-- reply one

-- ask Which bin should I file `C/C=C(\C)C(=O)N[C@@H](c1ccccc1)[C@@H](O)C(=O)O[C@H]1C[C@@]2(O)[C@@H](OC(=O)c3cccc(N=[N+]=[N-])c3)[C@@H]3[C@]4(OC(C)=O)CO[C@@H]4C[C@H](OC(=O)CN(C)C)[C@@]3(C)C(=O)[C@H](O)C(=C1C)C2(C)C` under?
-- reply three
